subject of test: σ1-receptor (Cavia porcellus, UniProt Q60492)
Sequence (Q60492 whole entry): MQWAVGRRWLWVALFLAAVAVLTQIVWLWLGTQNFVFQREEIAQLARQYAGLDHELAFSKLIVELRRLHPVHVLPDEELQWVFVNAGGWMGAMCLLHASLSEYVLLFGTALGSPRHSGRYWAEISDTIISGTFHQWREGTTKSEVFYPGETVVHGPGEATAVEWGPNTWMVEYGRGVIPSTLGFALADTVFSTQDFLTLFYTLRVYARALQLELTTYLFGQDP
pKi: −log10 of the molar value. Where a name gives a salt, the structure may show the parent alone.
attribute measured: pKi

[[record]]
compound = "CN1CCN(CCC2=CCc3c2cccc3-n2ccnn2)CC1 [Compound 27, maleate]"
meas_value = 6.73

[[record]]
compound = "CN1CCN(CCC2=CCc3c2cccc3-c2ccc(F)cc2)CC1 [Compound 16, maleate]"
meas_value = 7.92

[[record]]
compound = "CN1CCN(CCC2=CCc3cc(-c4ccnc(F)c4)ccc32)CC1 [Compound 41, maleate]"
meas_value = 6.92

[[record]]
compound = "C1=C(CCN2CCCCC2)c2cccc(-c3ccccc3)c2C1 [Compound 8, maleate]"
meas_value = 8.15


(I) CN1CCN(CCC2=CCc3c2cccc3-c2ccsc2)CC1 [Compound 26, maleate]
(II) COc1ccc(-c2cccc3c2CC=C3CCN2CCOCC2)cn1 [Compound 39, maleate]
(III) CN1CCN(CCC2=CCc3c2cccc3-c2ccc(F)nc2)CC1 [Compound 37, maleate]
Prompt line: Hey, quick one: sort these by pKi, largest value first please. // rank by listing labels in the order requested
Response line: I, III, II
(I: 8.15, III: 7.47, II: 6.74)

(I) Fc1ccc(-c2cccc3c2CC=C3CCN2CCCCC2)cc1 [Compound 15, maleate]
(II) COc1ccc(-c2cccc3c2CC=C3CCN2CCN(C)CC2)cn1 [Compound 36, maleate]
Prompt line: # min-compare on pKi between I and II Please reply using the label of the selected record.
Response line: II

(P) C1=C(CCN2CCOCC2)c2cccc(-c3ccsc3)c2C1 [Compound 25, maleate]
(Q) Fc1ccc(-c2cccc3c2CC=C3CCN2CCN(c3ccccc3)CC2)cc1 [Compound 14, maleate]
Prompt line: I'm curious, which of these has a smaller pKi number: P or Q ? Write the label of whichever entry you select.
Response line: Q
(Q: 7.62, P: 8.22)
